Tested on: pancreatic cancer cell Line (KP3)
measurement_description: MTS cytotoxicity on KP3 cells
Assay type: cell-based
Catalogue of IC50 readings, one per entry.
Could you give me the number in µM? Just the number is fine.

Check out these entries, answers already filled in.
[[record]]
structure_notation = "CCN(CC)CCNC(=O)c1cccnc1Nc1c(Cl)cc(-c2c(C)noc2C)cc1Cl"
numeric_readout = 8.7

[[record]]
structure_notation = "Cc1n[nH]cc1-c1cc(Cl)c(Nc2ccccc2C(=O)NO)c(Cl)c1"
numeric_readout = 6.2

[[record]]
structure_notation = "Cc1noc(C)c1-c1cc(Cl)c(Nc2ccccc2C(=O)NCCN2CCN(C)CC2)c(Cl)c1"
numeric_readout = 2

[[record]]
structure_notation = "O=C(NO)c1ccccc1Nc1c(Cl)cc(-c2cn[nH]c2)cc1Cl"
numeric_readout = 2.2

[[record]]
structure_notation = "Cc1noc(C)c1-c1cc(F)c(Nc2ccccc2C(=O)NO)c(F)c1"
numeric_readout = 2.6


Ask: Item CCN(CC)CCNC(=O)c1ccccc1Nc1c(Cl)cc(-c2c(C)noc2C)cc1Cl with pancreatic cancer cell Line (KP3) - IC50?
Reply: 2.6

Ask: Item Cc1n[nH]c(C)c1-c1cc(Cl)c(Nc2ccccc2C(=O)NO)c(Cl)c1 with pancreatic cancer cell Line (KP3) - IC50?
Reply: 5.6

Ask: Item CCN(CC)CCNC(=O)c1ccccc1Nc1c(Cl)cc(-c2cc(F)cc(F)c2)cc1Cl with pancreatic cancer cell Line (KP3) - IC50?
Reply: 4.7

====

study_target: FTO (Homo sapiens (Human))
measurement_description: FTO enzyme inhibition (m6A dsDNA substrate, DpnII digestion, gel readout)
Format: biochemical
assay_context: in vitro inhibition rate on FTO, compound at 50 μM
Catalogue of Inhibition rate readings, one per entry.
Could you give me the number in %? Just the number is fine.

[[record]]
compound = "Cc1cc(-c2c(C)noc2C)cc(C)c1Nc1ccccc1C(=O)O [Compound 44]"
study_target = "FTO (Homo sapiens (Human))"
numeric_readout = 100

[[record]]
compound = "O=C(NO)c1cccnc1Nc1c(Cl)cc(-c2ccncc2)cc1Cl [Compound 62]"
study_target = "FTO (Homo sapiens (Human))"
numeric_readout = 28

[[record]]
compound = "O=C(O)c1cccnc1Nc1c(Cl)cc(-c2ccoc2)cc1Cl [Compound 59]"
study_target = "FTO (Homo sapiens (Human))"
numeric_readout = 100


Ask: Returns the measured Inhibition rate for the input compound. Input: O=C(NO)c1ccccc1Nc1c(Cl)cc(-c2cn[nH]c2)cc1Cl [Compound 33]
Reply: 63

Ask: Returns the measured Inhibition rate for the input compound. Input: Cc1noc(C)c1-c1cc(F)c(Nc2ccccc2C(=O)O)c(F)c1 [Compound 38]
Reply: 100

Ask: Returns the measured Inhibition rate for the input compound. Input: Cc1noc(C)c1-c1cc(F)c(Nc2ccccc2C(=O)NO)c(F)c1 [Compound 39]
Reply: 90

Ask: Returns the measured Inhibition rate for the input compound. Input: COc1cc(-c2cc[nH]n2)cc(OC)c1Nc1ccccc1C(=O)O [Compound 42]
Reply: 79

Ask: Returns the measured Inhibition rate for the input compound. Input: Cc1noc(C)c1-c1cc(Cl)c(Nc2ccc([N+](=O)[O-])cc2C(=O)O)c(Cl)c1 [Compound 74]
Reply: 75

Ask: Returns the measured Inhibition rate for the input compound. Input: O=C(O)c1cc(F)ccc1Nc1c(Cl)cc(-c2cn[nH]c2)cc1Cl [Compound 73]
Reply: 84

Ask: Returns the measured Inhibition rate for the input compound. Input: O=C(O)c1cc(F)ccc1Nc1c(Cl)cc(-c2cncnc2)cc1Cl [Compound 71]
Reply: 70

====

study_target: FTO (Homo sapiens (Human), UniProt Q9C0B1)
Sequence (Q9C0B1 whole entry): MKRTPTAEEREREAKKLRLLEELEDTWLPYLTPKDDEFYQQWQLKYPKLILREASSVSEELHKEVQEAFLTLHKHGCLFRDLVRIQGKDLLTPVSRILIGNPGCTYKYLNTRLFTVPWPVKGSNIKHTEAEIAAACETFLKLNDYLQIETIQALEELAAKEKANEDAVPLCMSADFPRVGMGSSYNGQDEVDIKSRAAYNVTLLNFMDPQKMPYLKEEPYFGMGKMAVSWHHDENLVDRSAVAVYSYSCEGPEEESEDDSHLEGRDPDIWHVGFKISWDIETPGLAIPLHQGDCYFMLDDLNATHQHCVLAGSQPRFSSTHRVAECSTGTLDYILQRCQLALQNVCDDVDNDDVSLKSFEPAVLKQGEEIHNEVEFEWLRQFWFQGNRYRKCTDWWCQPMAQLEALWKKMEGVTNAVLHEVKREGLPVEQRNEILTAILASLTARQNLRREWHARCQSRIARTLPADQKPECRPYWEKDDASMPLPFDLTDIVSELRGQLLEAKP
pIC50: −log10 of the molar value.
measured_property: pIC50

[[record]]
compound = "Cc1noc(C)c1-c1cc(Cl)c(Nc2ccccc2C(=O)NO)c(Cl)c1 [Compound 25]"
result = "> 6.00"

[[record]]
compound = "Cc1noc(C)c1-c1cc(F)c(Nc2ccccc2C(=O)O)c(F)c1 [Compound 38]"
result = "> 6.00"

[[record]]
compound = "Cc1noc(C)c1-c1cc(F)c(Nc2ccccc2C(=O)NO)c(F)c1 [Compound 39]"
result = "> 6.00"


Consider now this further compound.
Ask: Item O=C(O)c1ccccc1Nc1c(Cl)cc(-c2ccn[nH]2)cc1Cl [Compound 2] with FTO (Homo sapiens (Human), UniProt Q9C0B1) - pIC50?
Reply: > 5.30

====

System: human bone marrow rhabdomyosarcoma cell line (RH30)
measurement_description: MTS cytotoxicity on RH30 cells
Assay type: cell-based
Description: The following was a study of the cytotoxicity study of compound of 2-(substituted phenylhetero)aromatic formic acid of formula (I) and its derivatives as FTO inhibitors on solid tumors including human small cell lung cancer cell lines (SCLC-21H), human bone marrow rhabdomyosarcoma cell line (RH30) and pancreatic cancer cell Line (KP3): SCLC-21H, RH30 and KP3 solid tumor cell lines were cultivated separately, and seeded at 5000 cells per well in 96 well plates. […]
Simple rule here: IC50 less than 4 µM is class 1, otherwise class 0.

[[record]]
structure_notation = "CCN(CC)CCNC(=O)c1ccccc1Nc1c(Cl)cc(-c2cc(F)cc(F)c2)cc1Cl"
category_label = "class 0"

[[record]]
structure_notation = "Cc1noc(C)c1-c1cc(F)c(Nc2ccccc2C(=O)O)c(F)c1"
category_label = "class 0"

[[record]]
structure_notation = "CCN(CC)CCNC(=O)c1cccnc1Nc1c(Cl)cc(-c2c(C)noc2C)cc1Cl"
category_label = "class 0"

[[record]]
structure_notation = "Cc1noc(C)c1-c1cc(Cl)c(Nc2ccccc2C(=O)NCCCN2CCOCC2)c(Cl)c1"
category_label = "class 1"

[[record]]
structure_notation = "CCN(CC)CCNC(=O)c1ccccc1Nc1c(Cl)cc(-c2c(C)noc2C)cc1Cl"
category_label = "class 1"

[[record]]
structure_notation = "Cc1noc(C)c1-c1cc(Cl)c(Nc2ccccc2C(=O)NCCN2CCN(C)CC2)c(Cl)c1"
category_label = "class 1"


Ask: Below 4 µM on IC50? Entry Cc1n[nH]cc1-c1cc(Cl)c(Nc2ccccc2C(=O)NO)c(Cl)c1
Reply: class 1

====

Tested on: human small cell lung cancer cell lines (SCLC-21H)
measurement_description: MTS cytotoxicity on SCLC-21H cells
Type: cell-based
assay_context: Homo sapiens, SCLC-21H; 50 μM, 72 h; read-out: Inhibition rate (human small cell lung cancer SCLC-21H)
measured_property: inhibition at 50 µM (%)
Could you give me the number in %? Just the number is fine.

Check out these entries, answers already filled in.
[[record]]
structure_notation = "Cc1noc(C)c1-c1cc(Cl)c(Nc2ccccc2C(=O)NO)c(Cl)c1"
numeric_readout = 78

[[record]]
structure_notation = "Cc1noc(C)c1-c1cc(Cl)c(Nc2ccccc2C(=O)O)c(Cl)c1"
numeric_readout = 43

[[record]]
structure_notation = "O=C(O)c1ccccc1Nc1c(Cl)cc(-c2ccncc2)cc1Cl"
numeric_readout = 55

[[record]]
structure_notation = "Cc1n[nH]c(C)c1-c1cc(Cl)c(Nc2ccccc2C(=O)O)c(Cl)c1"
numeric_readout = 25


Consider now this further compound.
Ask: Item Cc1noc(C)c1-c1cc(Cl)c(Nc2ccccc2C(=O)OCOC(=O)C(C)(C)C)c(Cl)c1 with human small cell lung cancer cell lines (SCLC-21H) - inhibition at 50 µM?
Reply: 26

====

System: human small cell lung cancer cell lines (SCLC-21H)
measurement_description: MTS cytotoxicity on SCLC-21H cells
Type: cell-based
assay_context: Homo sapiens, SCLC-21H; read-out: Cytotoxicity on cell line SCLC (IC50)
measured_property: IC50 (nM)
Could you give me the number in nM? Just the number is fine.

Ask: Returns the measured IC50 for the input compound. Input: Cc1noc(C)c1-c1cc(Cl)c(Nc2ccccc2C(=O)NO)c(Cl)c1
Reply: 2400

====

Catalogue of inhibition at 50 µM readings, one per entry.
study_target: FTO (Homo sapiens (Human))
measurement_description: FTO enzyme inhibition (m6A dsDNA substrate, DpnII digestion, gel readout)
Format: biochemical
assay_context: read-out: Inhibition rate
Could you give me the number in %? Just the number is fine.

[[record]]
structure_notation = "C#CCOC(=O)c1ccccc1Nc1c(Cl)cc(-c2c(C)noc2C)cc1Cl"
numeric_readout = 34

[[record]]
structure_notation = "CCCOCCOC(=O)c1ccccc1Nc1c(Cl)cc(-c2c(C)noc2C)cc1Cl"
numeric_readout = 30

[[record]]
structure_notation = "Cc1noc(C)c1-c1cc(Cl)c(Nc2ccccc2C(=O)OCOC(=O)C(C)(C)C)c(Cl)c1"
numeric_readout = 31


Ask: Item O=C(O)c1ccccc1Nc1c(Cl)cc(-c2cc(O)cc(O)c2)cc1Cl with FTO (Homo sapiens (Human)) - inhibition at 50 µM?
Reply: 85

====

study_target: FTO (Homo sapiens (Human), UniProt Q9C0B1)
measurement_description: FTO enzyme inhibition (m6A dsDNA substrate, DpnII digestion, gel readout)
Type: biochemical
assay_context: read-out: Inhibition rate
Method: High purity FTO protein was obtained by nickel column affinity chromatography purification. After incubation at room temperature for 2 hrs, the reaction system was then slowly heated to 65° C. to inactivate, and 1 μM 39 nt of antisense strand DNA was added to anneal, thereby forming double strands. […] After Gel-Red dyeing, photos were taken with gel imaging system. The obtained band was subjected to gray scale reading to obtain inhibition rate.
measured_property: inhibition at 50 µM (%)
Could you give me the number in %? Just the number is fine.

Ask: Returns the measured inhibition at 50 µM for the input compound. Input: O=C(O)c1ccccc1Nc1c(Cl)cc(-c2ccn[nH]2)cc1Cl
Reply: 80
